B1: DVL3 (parent)
chain: FCADNPSELPPPMERTGGIGDSRP

Variants of: B1
PROCEDURE_DETAILS: protein stability index of a GFP-peptide fusion (GPS, HEK-293T) (PSI 1-6); higher = more stable;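 further: lentivirally expressed fusions sorted by FACS into six bins by GFP to DsRed ratio, PSI derived from sequencing read proportions per bin multiplied by bin number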
SETUP_CONDITIONS: c terminus: a fixed tail appended
Label criterion met when protein stability index is at or above 4; otherwise label criterion not met.

Challenge: Is it the case that N5A has protein stability index reaching or exceeding 4?
Response given: criterion met

Challenge: Is it the case that N5D has protein stability index reaching or exceeding 4?
Response given: criterion met

Challenge: Is it the case that P10L has protein stability index reaching or exceeding 4?
Response given: criterion met

Challenge: Is it the case that D21R has protein stability index reaching or exceeding 4?
Response given: criterion not met

Challenge: Is it the case that P10I has protein stability index reaching or exceeding 4?
Response given: criterion not met

***
Challenge: Is it the case that E14D has protein stability index reaching or exceeding 4?
Response given: criterion met

Challenge: Is it the case that R23C has protein stability index reaching or exceeding 4?
Response given: criterion met

Challenge: Is it the case that P24R has protein stability index reaching or exceeding 4?
Response given: criterion met

Challenge: Is it the case that F1E has protein stability index reaching or exceeding 4?
Response given: criterion met

Challenge: Is it the case that D21H has protein stability index reaching or exceeding 4?
Response given: criterion met
